test: Metabolic stability of the compound in rat liver microsomes assessed as parent compound remaining at 50 uM preincubated for 5 mins followed by incubation with NADPH regenerating system for 120 mins by LC/MS analysis; format: ADME, Microsome; settings: read-out: Stabilty
Reported Endpoint: remaining at 2 h, 50 µM (%)
Field format: number, assumed %, no unit text.

                                test_smiles  number
0  COc1ccccc1N1CCN(CCCCC(=O)Nc2ccc(C(C)C)cc2)CC1.Cl    90.1
1  COc1ccccc1N1CCN(CCCCC(=O)Nc2cccc(C(C)(C)C)c2)CC1.Cl    23.8

As a next step, examine the compound that follows.
Exercise: Look up remaining at 2 h, 50 µM of `COc1ccccc1N1CCN(CCCCC(=O)Nc2cccc(C(C)C)c2)CC1.Cl` and report it.
Solution: 6.5

----------
Target: 5-hydroxytryptamine receptor 1A (Homo sapiens, UniProt P08908)
Sequence (P08908 whole entry): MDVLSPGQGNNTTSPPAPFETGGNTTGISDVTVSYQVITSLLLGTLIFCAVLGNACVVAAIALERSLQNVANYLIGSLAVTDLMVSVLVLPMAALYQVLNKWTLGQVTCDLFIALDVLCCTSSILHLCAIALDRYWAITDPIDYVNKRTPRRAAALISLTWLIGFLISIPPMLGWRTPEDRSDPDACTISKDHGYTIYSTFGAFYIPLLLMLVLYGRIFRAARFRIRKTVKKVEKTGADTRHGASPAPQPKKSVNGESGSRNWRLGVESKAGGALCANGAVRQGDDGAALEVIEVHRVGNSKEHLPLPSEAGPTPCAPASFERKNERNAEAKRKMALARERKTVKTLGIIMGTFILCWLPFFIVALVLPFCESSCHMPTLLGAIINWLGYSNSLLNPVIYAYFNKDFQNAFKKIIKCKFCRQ
Experiment: Displacement of [3H]8-OH-DPAT from human 5HT1A receptor expressed in HEK293 cells measured after 1 hr by microbeta counting method
Format: cell-based
Reported Endpoint: Ki (nM)
Field format: number, assumed nM, no unit text.

A selection of reference data follows.
>>> df
                                test_smiles  reported_endpoint  number
0  COc1ccccc1N1CCN(CCCCCC(=O)Nc2ccc(C(=O)OC(C)(C)C)cc2)CC1                 Ki     125
1  COc1ccccc1N1CCN(CCCC(=O)Nc2ccc(C(=O)OC(C)(C)C)cc2)CC1                 Ki     287

As a next step, examine the molecule that follows.
Exercise: Look up Ki of `COc1ccccc1N1CCN(CCCC(=O)Nc2ccccc2C(N)=O)CC1` and report it.
Solution: 526

----------
assay: Effective permeability of the compound at 200 uM incubated for 5 hrs by PAMPA based UPLC/MS analysis; assay type: ADME; settings: read-out: Peff
Reported Endpoint: Papp at 5 h, 200 µM (×10⁻⁶ cm/s)
Field format: number, assumed ×10⁻⁶ cm/s, no unit text.

A selection of reference data follows.
In [3]: df
Out[3]:
                                   molecule  number
0  COc1ccccc1N1CCN(CCCCC(=O)Nc2cccc(C(C)(C)C)c2)CC1.Cl     4.8
1  COc1ccccc1N1CCN(CCCCC(=O)Nc2ccc(C(C)C)cc2)CC1.Cl    10.5
2  COc1ccccc1N1CCN(CCCCC(=O)Nc2cccc(C(C)C)c2)CC1.Cl     8.6

As a next step, examine the molecule that follows.
Exercise: Look up Papp at 5 h, 200 µM of CCn1cc(C(=O)O)c(=O)c2cc(F)c(N3CCNCC3)cc21 [NORFLOXACIN] and report it.
Solution: 0.6

----------
target: 5-hydroxytryptamine receptor 1A (Homo sapiens, UniProt P08908); assay: Displacement of [3H]8-OH-DPAT from human 5HT1A receptor expressed in HEK293 cells measured after 1 hr by microbeta counting method; type: cell-based
Reported Endpoint: pKi
Field pKi (float): negative decimal logarithm of the concentration in molar.

>>> print(df.to_string())
                                test_smiles                                    system  number
0  COc1ccccc1N1CCN(CCCC(=O)Nc2cccc(C(C)(C)C)c2)CC1  5-hydroxytryptamine receptor 1A (Homo sapiens, UniProt P08908)    6.65
1  COc1ccccc1N1CCN(CCCCCC(=O)Nc2cccc(C(C)(C)C)c2)CC1  5-hydroxytryptamine receptor 1A (Homo sapiens, UniProt P08908)    7.28
2  COc1ccccc1N1CCN(CCCCC(=O)Nc2ccccc2C(N)=O)CC1  5-hydroxytryptamine receptor 1A (Homo sapiens, UniProt P08908)    7.09

Exercise: Look up pKi of `COc1ccccc1N1CCN(CCCCC(=O)Nc2cccc(C(C)(C)C)c2)CC1.Cl` and report it.
Solution: 7.80

Exercise: Look up pKi of `COc1ccccc1N1CCN(CCCCC(=O)NCc2ccc(C(C)(C)C)cc2)CC1` and report it.
Solution: 6.86

Exercise: Look up pKi of `COc1ccccc1N1CCN(CCCCC(=O)Nc2ccc(C(C)(C)C)cc2)CC1` and report it.
Solution: 7.68

Exercise: Look up pKi of `COc1ccccc1N1CCN(CCCCCC(=O)Nc2ccc(C(C)C)cc2)CC1` and report it.
Solution: 7.37

Exercise: Look up pKi of `COc1ccccc1N1CCN(CCCCCC(=O)NCc2ccccc2O)CC1` and report it.
Solution: 7.15

Exercise: Look up pKi of `COc1ccccc1N1CCN(CCCC(=O)Nc2cccc(C(C)C)c2)CC1` and report it.
Solution: 6.73

Exercise: Look up pKi of `COc1ccccc1N1CCN(CCCC(=O)Nc2ccccc2O)CC1` and report it.
Solution: 6.39

----------
molecular target: 5-hydroxytryptamine receptor 7 (Homo sapiens); experiment: Binding affinity to 5HT7 receptor (unknown origin)
Sequence (P34969 whole entry): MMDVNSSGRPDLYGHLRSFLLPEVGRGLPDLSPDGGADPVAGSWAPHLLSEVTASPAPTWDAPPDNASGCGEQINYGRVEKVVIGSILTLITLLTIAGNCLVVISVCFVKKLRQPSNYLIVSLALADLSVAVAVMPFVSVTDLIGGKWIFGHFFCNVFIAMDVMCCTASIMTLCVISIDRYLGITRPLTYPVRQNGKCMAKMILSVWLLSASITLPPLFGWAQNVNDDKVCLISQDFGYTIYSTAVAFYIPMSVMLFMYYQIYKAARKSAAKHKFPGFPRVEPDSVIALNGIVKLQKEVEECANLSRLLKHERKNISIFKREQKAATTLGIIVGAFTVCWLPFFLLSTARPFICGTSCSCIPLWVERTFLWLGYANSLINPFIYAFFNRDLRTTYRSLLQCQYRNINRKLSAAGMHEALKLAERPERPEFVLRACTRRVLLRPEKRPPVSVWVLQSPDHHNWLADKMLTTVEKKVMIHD
Reported Endpoint: Ki (nM)
Field format: number, assumed nM, no unit text.

Exercise: Write Ki of `O=S(=O)(NCCCCN1CCN(c2nsc3ccccc23)CC1)c1c[nH]c2ncccc12` ; system used: 5-hydroxytryptamine receptor 7 (Homo sapiens)
Solution: 93

----------
molecular target: 3',5'-cyclic-AMP phosphodiesterase 4B (Homo sapiens); assay: Inhibition of recombinant human PDE4B expressed in Sf9 cells measured after 10 mins by luminescence based assay
Sequence (Q07343 whole entry): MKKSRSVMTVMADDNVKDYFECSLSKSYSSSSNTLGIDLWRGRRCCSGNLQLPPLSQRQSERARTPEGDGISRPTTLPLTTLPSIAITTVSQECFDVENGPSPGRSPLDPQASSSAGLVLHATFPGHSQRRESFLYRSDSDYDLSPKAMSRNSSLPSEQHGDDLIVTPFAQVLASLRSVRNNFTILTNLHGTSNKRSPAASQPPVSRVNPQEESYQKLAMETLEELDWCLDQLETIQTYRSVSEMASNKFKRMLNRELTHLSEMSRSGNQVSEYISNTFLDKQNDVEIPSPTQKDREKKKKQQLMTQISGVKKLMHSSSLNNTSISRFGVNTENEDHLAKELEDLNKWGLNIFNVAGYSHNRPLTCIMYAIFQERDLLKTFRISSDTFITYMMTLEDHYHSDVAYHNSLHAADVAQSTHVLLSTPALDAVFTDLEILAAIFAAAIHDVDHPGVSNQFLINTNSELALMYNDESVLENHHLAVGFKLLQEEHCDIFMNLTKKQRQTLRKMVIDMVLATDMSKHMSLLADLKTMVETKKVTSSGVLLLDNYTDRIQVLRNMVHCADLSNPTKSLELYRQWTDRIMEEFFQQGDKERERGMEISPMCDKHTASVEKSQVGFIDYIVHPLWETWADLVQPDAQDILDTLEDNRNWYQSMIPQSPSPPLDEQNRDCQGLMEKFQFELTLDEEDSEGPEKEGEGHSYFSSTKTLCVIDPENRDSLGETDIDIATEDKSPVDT
Reported Endpoint: pIC50
Field pIC50 (float): negative decimal logarithm of the concentration in molar.

A selection of reference data follows.
                                   compound  number
0  COc1ccccc1N1CCN(CCCC(=O)Nc2ccc(C(C)(C)C)cc2)CC1    4.02
1  COc1ccccc1N1CCN(CCCC(=O)Nc2cc(C(C)(C)C)ccc2O)CC1    4.16
2  COc1ccccc1N1CCN(CCCCC(=O)Nc2ccc(C(C)(C)C)cc2)CC1    3.86
3  CCC(C)c1ccc(NC(=O)CCCCN2CCN(c3ccccc3OC)CC2)cc1 (stereo not drawn)    3.77
4  COc1ccccc1N1CCN(CCCCC(=O)Nc2cccc(C(C)C)c2)CC1.Cl    4.06
5  COc1ccccc1N1CCN(CCCCC(=O)Nc2cc(C(C)(C)C)ccc2O)CC1    4.44
6  COc1ccccc1N1CCN(CCCCC(=O)Nc2cccc(C(C)(C)C)c2)CC1.Cl    3.89

As a next step, examine the compound that follows.
Exercise: Look up pIC50 of `COc1ccccc1N1CCN(CCCCC(=O)Nc2ccc(C(C)C)cc2)CC1.Cl` and report it.
Solution: 4.09

----------
molecular target: High affinity 3',5'-cyclic-AMP phosphodiesterase 7A (Homo sapiens, UniProt Q13946); assay: Inhibition of recombinant human PDE7A expressed in Sf9 cells measured after 10 mins by luminescence based assay
Sequence (Q13946 whole entry): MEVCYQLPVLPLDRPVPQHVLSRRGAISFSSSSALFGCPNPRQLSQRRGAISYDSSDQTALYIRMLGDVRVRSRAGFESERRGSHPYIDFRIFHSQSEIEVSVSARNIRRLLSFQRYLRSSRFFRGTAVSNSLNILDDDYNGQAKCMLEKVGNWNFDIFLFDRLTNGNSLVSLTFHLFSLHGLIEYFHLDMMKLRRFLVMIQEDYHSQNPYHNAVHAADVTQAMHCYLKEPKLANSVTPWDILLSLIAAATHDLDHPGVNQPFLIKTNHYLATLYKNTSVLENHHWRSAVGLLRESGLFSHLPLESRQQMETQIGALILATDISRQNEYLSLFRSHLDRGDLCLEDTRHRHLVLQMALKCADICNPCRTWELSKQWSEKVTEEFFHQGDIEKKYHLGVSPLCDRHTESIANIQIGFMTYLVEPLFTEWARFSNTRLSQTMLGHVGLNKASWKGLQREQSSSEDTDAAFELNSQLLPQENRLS
Reported Endpoint: IC50 (µM)
Field format: number, assumed µM, no unit text.

>>> df
                                   compound  reported_endpoint  number
0  COc1ccccc1N1CCN(CCCC(=O)Nc2cc(C(C)(C)C)ccc2O)CC1               IC50      57
1  COc1ccccc1N1CCN(CCCC(=O)Nc2ccc(C(C)(C)C)cc2)CC1               IC50      27
2  COc1ccccc1N1CCN(CCCCC(=O)Nc2ccc(C(C)C)cc2)CC1.Cl               IC50     151

As a next step, examine the compound that follows.
Exercise: Look up IC50 of CCC(C)c1ccc(NC(=O)CCCCN2CCN(c3ccccc3OC)CC2)cc1 (stereo not drawn) and report it.
Solution: 126

----------
molecular target: 5-hydroxytryptamine receptor 1A (Homo sapiens); experiment: Displacement of [3H]8-OH-DPAT from human 5HT1A receptor expressed in HEK293 cells measured after 1 hr by microbeta counting method; assay type: cell-based
Threshold 70 nM. Ki below it: Criterion met. Ki at it or above: Criterion not met.

The following molecules have reported results that may help.
>>> df
                                   molecule                                    system              class
0   COc1ccccc1N1CCN(CCCCC(=O)Nc2ccccc2O)CC1  5-hydroxytryptamine receptor 1A (Homo sapiens)      Criterion met
1  COc1ccccc1CNC(=O)CCCN1CCN(c2ccccc2OC)CC1  5-hydroxytryptamine receptor 1A (Homo sapiens)  Criterion not met
2  COc1ccccc1N1CCN(CCCCC(=O)Nc2cc(C(C)(C)C)ccc2O)CC1  5-hydroxytryptamine receptor 1A (Homo sapiens)      Criterion met
3  CCC(C)c1ccc(NC(=O)CCCCN2CCN(c3ccccc3OC)CC2)cc1 (stereo unspecified)  5-hydroxytryptamine receptor 1A (Homo sapiens)      Criterion met
4  COc1ccccc1N1CCN(CCCC(=O)Nc2ccc(C(C)C)cc2)CC1  5-hydroxytryptamine receptor 1A (Homo sapiens)  Criterion not met
5  COc1ccccc1CNC(=O)CCCCCN1CCN(c2ccccc2OC)CC1  5-hydroxytryptamine receptor 1A (Homo sapiens)      Criterion met
6  COc1ccccc1N1CCN(CCCCCC(=O)Nc2cccc(C(C)C)c2)CC1  5-hydroxytryptamine receptor 1A (Homo sapiens)      Criterion met
7  CCC(C)c1ccc(NC(=O)CCCN2CCN(c3ccccc3OC)CC2)cc1 (stereo unspecified)  5-hydroxytryptamine receptor 1A (Homo sapiens)      Criterion met

Exercise: Criterion: Ki strictly below 70 nM. Is it met by `COc1ccccc1CNC(=O)CCCCN1CCN(c2ccccc2OC)CC1` ?
Solution: Criterion not met

Exercise: Criterion: Ki strictly below 70 nM. Is it met by `COc1ccccc1N1CCN(CCCCCC(=O)Nc2ccccc2O)CC1` ?
Solution: Criterion not met
